Each entry below carries its reported IC50.
Molecular target: USP7 (Homo sapiens, UniProt Q93009)
Construct: USP7, construct USP7 (208-1102) 6*His, Viva Biotech; 6xHis (C); purchased Viva Biotech
Sequence (Q93009 208-1102): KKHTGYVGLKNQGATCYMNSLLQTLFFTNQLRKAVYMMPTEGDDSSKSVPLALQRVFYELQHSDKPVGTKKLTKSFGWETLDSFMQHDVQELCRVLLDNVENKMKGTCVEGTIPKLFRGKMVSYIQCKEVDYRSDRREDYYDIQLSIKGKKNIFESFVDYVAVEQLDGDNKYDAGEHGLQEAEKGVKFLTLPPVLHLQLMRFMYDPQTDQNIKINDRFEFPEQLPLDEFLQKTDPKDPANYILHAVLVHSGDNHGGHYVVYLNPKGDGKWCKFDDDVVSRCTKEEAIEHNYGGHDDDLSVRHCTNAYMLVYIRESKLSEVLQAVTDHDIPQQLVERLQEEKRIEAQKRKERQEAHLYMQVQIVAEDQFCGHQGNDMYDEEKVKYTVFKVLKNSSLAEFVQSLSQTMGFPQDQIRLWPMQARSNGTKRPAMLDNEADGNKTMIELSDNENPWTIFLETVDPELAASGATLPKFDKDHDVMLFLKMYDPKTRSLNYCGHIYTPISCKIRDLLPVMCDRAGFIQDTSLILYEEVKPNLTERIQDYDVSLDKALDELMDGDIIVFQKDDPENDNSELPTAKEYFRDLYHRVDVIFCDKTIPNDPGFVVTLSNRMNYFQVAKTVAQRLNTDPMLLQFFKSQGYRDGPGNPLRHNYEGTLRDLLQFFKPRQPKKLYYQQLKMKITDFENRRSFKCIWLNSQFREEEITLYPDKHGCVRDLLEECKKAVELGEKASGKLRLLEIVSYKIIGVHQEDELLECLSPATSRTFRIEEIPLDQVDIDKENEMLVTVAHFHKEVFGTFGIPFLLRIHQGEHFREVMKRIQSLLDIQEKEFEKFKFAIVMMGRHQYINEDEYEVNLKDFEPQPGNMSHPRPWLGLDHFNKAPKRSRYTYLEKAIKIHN
Test: USP7 Assay A (Ubitquin-Rhodamine 110 Assay)
Format: biochemical
Details: USP7 activity in USP7 assay A and B (table does not say which assay per compound); read-out: USP7_IC50

As a guide, the following entries are already answered.
[[record]]
compound = "COc1ccc(OC2CCC(C(=O)N3CCC(O)(Cn4cnc5c(cnn5-c5ccccc5)c4=O)CC3)CC2)nc1 (stereo not shown) [Compound I-1020]"
measured_quantity = "IC50"
value = "0.2 to 1 µM"

[[record]]
compound = "Cn1cc(-c2ccc(-n3ncc4c(=O)n(CC5(O)CCN(C(=O)c6cnc(C7CC7)o6)CC5)cnc43)cc2)cn1 [Compound I-776]"
measured_quantity = "IC50"
value = "< 0.2 µM"

[[record]]
compound = "CN1CC2CCC(C1)N2c1ccc(C(=O)N2CCC(O)(Cn3cnc4c(cnn4-c4ccc(F)cc4)c3=O)CC2)cc1 [Compound I-1681]"
measured_quantity = "IC50"
value = "1 to 10 µM"

[[record]]
compound = "O=C(c1cnn(C2CC2)c1)N1CCC(O)(Cn2cnc3c(cnn3-c3ccc(C4CC4)cc3)c2=O)CC1 [Compound I-798]"
measured_quantity = "IC50"
value = "0.2 to 1 µM"

[[record]]
compound = "O=C(c1cccn1Cc1c(F)cccc1F)N1CCC(O)(Cn2cnc3c(cnn3-c3ccc(F)cc3)c2=O)CC1 [Compound I-559]"
measured_quantity = "IC50"
value = "1 to 10 µM"


Data point: CC1(C(=O)N2CCC(O)(Cn3cnc4c(cnn4-c4cccc(N5CCC(F)(F)CC5)c4)c3=O)CC2)CC1 [Compound I-1675] ; IC50 = < 0.2 µM

// IC50 lookup, compound = Cn1ccc(NC2CCC(C(=O)N3CCC(O)(Cn4cnc5c(ccn5-c5ccc(F)cc5)c4=O)CC3)CC2)n1 (stereo not shown) [Compound I-1041] , result: 0.2 to 1 µM

* * *

Biological target: USP7 (Homo sapiens)
Construct: USP7, construct USP7 (208-1102) 6*His, Viva Biotech; 6xHis (C); purchased Viva Biotech
Assay: USP7 Assay A (Ubitquin-Rhodamine 110 Assay)
Assay type: biochemical
Settings: USP7 assay A and B (table does not say which assay per compound); read-out: USP7_IC50
pIC50: −log10 of the molar value.
MEASURED QUANTITY: pIC50

[[record]]
chem_smiles = "CN(C)C(=O)N1CCC(O)(Cn2cnc3c(cnn3-c3ccc(F)c(-c4ccc(F)cc4)c3)c2=O)CC1"
value = "5.00 to 6.00"

[[record]]
chem_smiles = "CN(C)C(=O)N1CCC(O)(Cn2cnc3c(cnn3-c3ccc(NCCN4CCCCC4)cc3)c2=O)CC1"
value = "6.00 to 6.70"

[[record]]
chem_smiles = "COc1ccc(C(=O)N2CCC(O)(Cn3cnc4c(cnn4-c4ccc(F)cc4)c3=O)CC2)cc1"
value = "6.00 to 6.70"

[[record]]
chem_smiles = "CC(C)(C)c1ccc(-n2ncc3c(=O)n(CC4(O)CCN(C(=O)C5CC5)CC4)cnc32)cc1"
value = "6.00 to 6.70"


Record `O=C(c1ccccc1)N1CCC(O)(Cn2cnc3c(cnn3-c3ccccc3)c2=O)CC1` , field pIC50: 5.00 to 6.00

Record `Cc1ncc(C(=O)N2CCC(O)(Cn3cnc4c(cnn4-c4ccc(Cl)cc4)c3=O)CC2)o1` , field pIC50: 5.00 to 6.00

What the record says about `CN1CCC(Oc2ccc(C(=O)N3CCC(O)(Cn4cnc5c(cnn5-c5ccc(F)cc5)c4=O)CC3)cc2)CC1` : pIC50 is 5.00 to 6.00

* * *

IC50 overview
Target: USP7 (Homo sapiens, UniProt Q93009)
Construct: USP7, construct USP7 (208-1102) 6*His, Viva Biotech; 6xHis (C); purchased Viva Biotech
Experiment: USP7 Assay A (Ubitquin-Rhodamine 110 Assay)
Type: biochemical
Details: USP7 assay A and B (table does not say which assay per compound); read-out: USP7_IC50

[[record]]
compound = "O=C(c1ccc(F)cc1)N1CCC(O)(Cn2cnc3c(cnn3-c3ccccc3)c2=O)CC1"
value = "0.2 to 1 µM"

[[record]]
compound = "O=C(C1CC1)N1CCC(O)(Cn2cnc3c(cnn3-c3ccc(Nc4ccc(N5CCOCC5)cc4)cc3)c2=O)CC1"
value = "1 to 10 µM"

[[record]]
compound = "O=C(c1ccc2c(c1)CCO2)N1CCC(O)(Cn2cnc3c(cnn3-c3ccc(Cl)cc3)c2=O)CC1"
value = "1 to 10 µM"


// IC50 (USP7 (Homo sapiens, UniProt Q93009)) for `Cc1ccc(-n2ncc3c(=O)n(CC4(O)CCN(C(=O)c5ccc(OC6CN(C)C6)cc5)CC4)cnc32)cc1` = 1 to 10 µM

# `CN(C)C(=O)N1CCC(O)(Cn2cnc3c(cnn3-c3ccc(N4CCC5(CCNCC5)CC4)cc3)c2=O)CC1` with USP7 (Homo sapiens, UniProt Q93009): IC50 is 0.2 to 1 µM

Value sought: IC50, system USP7 (Homo sapiens, UniProt Q93009), item `O=C(c1cc2n(n1)CCO2)N1CCC(O)(Cn2cnc3c(cnn3-c3ccc(Cl)cc3)c2=O)CC1` . Result: 1 to 10 µM

# lookup: `CN(C)C1CCN(C(=O)c2ccc(-n3ncc4c(=O)n(CC5(O)CCN(C(=O)C6CC6)CC5)cnc43)cc2)CC1` on USP7 (Homo sapiens, UniProt Q93009), IC50 = 1 to 10 µM

CS(=N)(=O)c1ccc(-n2ncc3c(=O)n(CC4(O)CCN(C(=O)c5ccc(F)cc5)CC4)cnc32)cc1 (single isomer, unassigned) [Compound I-997] tested on USP7 (Homo sapiens, UniProt Q93009) gave IC50: 1 to 10 µM

The observed IC50 for `O=C(c1ccc2c(Cl)ccnc2c1)N1CCC(O)(Cn2cnc3c(cnn3-c3ccccc3)c2=O)CC1` when tested with USP7 (Homo sapiens, UniProt Q93009) stands at 1 to 10 µM

The compound CN1CCC(Oc2ccc(-c3ccc(-n4ncc5c(=O)n(CC6(O)CCN(C(=O)C7CC7)CC6)cnc54)cc3)cc2)C1 (stereo not drawn) , when measured on USP7 (Homo sapiens, UniProt Q93009), yielded IC50 of 0.2 to 1 µM

* * *

Entries and their pIC50 values follow.
Target: USP7 (Homo sapiens, UniProt Q93009)
Construct: USP7, construct USP7 (208-1102) 6*His, Viva Biotech; 6xHis (C); purchased Viva Biotech
Assay: USP7 Assay A (Ubitquin-Rhodamine 110 Assay)
Type: biochemical
Settings: USP7 assay A and B (table does not say which assay per compound); read-out: USP7_IC50
pIC50: −log10 of the molar value.

Reference set, count: 2
[[record]]
molecule = "C#CC(=O)N1CC[C@H]1C(=O)N1CCC(O)(Cn2cnc3c(cnn3-c3ccc(F)cc3)c2=O)CC1 [Compound I-803]"
value = "6.00 to 6.70"

[[record]]
molecule = "O=C(C1CC1)N1CCC(O)(Cn2cnc3c(cnn3-c3ccc(NS(=O)(=O)c4cccc(Cl)c4)cc3)c2=O)CC1 [Compound I-1428]"
value = "5.00 to 6.00"


Record O=C(C1CC1)N1CCC(O)(Cn2cnc3c(cnn3-c3ccc(N4CCCC4)cc3)c2=O)CC1 [Compound I-1199] . Reported pIC50: 5.00 to 6.00

Memo: O=C(c1ccc(Cl)c(Cl)c1)N1CCC(O)(Cn2cnc3c(cnn3-c3ccccc3)c2=O)CC1 [Compound I-213] , reported pIC50: 5.00 to 6.00

Lookup result for O=C(c1ccc(F)cc1)N1CCC(O)(Cn2cnc3c(cnn3-c3cnn(-c4ccccc4)c3)c2=O)CC1 [Compound I-704] ; measured pIC50: 5.00 to 6.00

The reported pIC50 of the molecule O=C(NC1CNCC1F)N1CCC(O)(Cn2cnc3c(cnn3-c3ccc(-c4ccccc4)cc3)c2=O)CC1 (stereo not shown) [Compound I-662] was < 5.00

The reported pIC50 of the molecule C[C@H](CC(=O)N1CCC(O)(Cn2cnc3c(cnn3-c3ccc(F)cc3)c2=O)CC1)N1CC2CCCC2C1 (stereo partly shown) [Compound I-525] was < 5.00

* * *

Molecular target: USP7 (Homo sapiens, UniProt Q93009)
Construct: USP7, construct USP7 (208-1102) 6*His, Viva Biotech; 6xHis (C); purchased Viva Biotech
Experiment: USP7 Assay A (Ubitquin-Rhodamine 110 Assay)
Format: biochemical
Details: USP7 assay A and B (table does not say which assay per compound); read-out: USP7_IC50
Procedure: Each assay was performed in a final volume of 15 μL in assay buffer containing 20 mM Tris-HCl (pH 8.0, (1M Tris-HCl, pH 8.0 solution; Corning 46-031-CM)), 1 mM GSH (L-Glutathione reduced; Sigma #G4251), 0.03% BGG ([…], Sigma, #G7516-25G), and 0.01% Triton X-100 (Sigma, #T9284-10L). […] Fluorescence was read on the Envision (Excitation at 485 nm and Emission at 535 nm; Perkin Elmer) or on the PheraSTAR (Excitation at 485 nm and Emission at 535 nm; BMG Labtech). […]
pIC50: −log10 of the molar value.
MEASURED QUANTITY: pIC50

# annotated cases, reported pIC50 shown
[[record]]
compound = "C=CS(=O)(=O)NCC(Cc1ccccc1)C(=O)N1CCC(O)(Cn2cnc3c(cnn3C)c2=O)CC1 (stereo not shown) [Compound I-170]"
value = "< 5.00"

[[record]]
compound = "CN(C)C(=O)N1CCC(O)(Cn2cnc3c(cnn3-c3ccc(OCC4CCC4)cc3)c2=O)CC1 [Compound I-1295]"
value = "5.00 to 6.00"

[[record]]
compound = "Cc1cccc(C(=O)N2CCC(O)(Cn3cnc4c(cnn4-c4ccccc4)c3=O)CC2)c1F [Compound I-206]"
value = "5.00 to 6.00"


Lookup result for CN(C)C(=O)N1CCC(O)(Cn2cnc3c(cnn3-c3ccc(F)cc3)c2=O)CC1 [Compound I-279] ; measured pIC50: 5.00 to 6.00

The measured pIC50 associated with C=CC(=O)N1CCC1C(=O)N1CCC(O)(Cn2cnc3c(cnn3-c3ccc(-c4ccccc4)cc3)c2=O)CC1 (stereo not shown) [Compound I-657] reads 6.00 to 6.70

The reported pIC50 of the compound CC(CC(=O)N1CCC(O)(Cn2cnc3c(cnn3C)c2=O)CC1)c1ccc(F)cc1 (stereo not shown) [Compound I-78] was 6.00 to 6.70

Sample O=C(C1CC1)N1CCC(O)(Cn2cnc3c(cnn3-c3cccc(-c4cnc(N5CCOCC5)nc4)c3)c2=O)CC1 [Compounds I-401] ; pIC50 observed: 5.00 to 6.00
